B1: GST-tagged ITSN1 SH3d (aa1076-1138), wild type [human] / FCHSD2 SH3-2 (aa568-629), recombinant [human] (parent complex)
chain 1: PEIAQVIASYTATGPEQLTLAPGQLILIRKKNPGGWWEGELQARGKKRQIGWFPANYVKLLSP
chain 2: SVCFVKALYDYEGQTDDELSFPEGAIIRILNKENQDDDGFWEGEFNGRIGVFPSVLVEELSA

- Variants of: B1
- ASSAY: GST pull-down, Coomassie stained gel, band quantification; n = 3 experiments, mean ± SD; parent: 1; read off a plot
RESULT TYPE: ratio to parent

What ratio to parent value was documented for this variant, chain 1 R44A ? ~0.08

Can you check chain 1 I3S next? ~0.08

Would you mind doing chain 1 T11A as well? ~1.1

Cool, now chain 1 I3K ~0.08

Further cases:
I would be grateful if you could share the reported ratio to parent for chain 1 R48E . ~0.4

Would you kindly repeat that for chain 1 R44E ? ~0.08
